Taken from ChEMBL document CHEMBL1127819.

# System: CCRF-CEM
# assay.name: Growth inhibition of methotrexate resistant human T-lymphoblastic leukemia cell subline CEM/MTX
# Type: functional, cell-based
readout.kind: EC50 (nM)
Give the quantity in nM, number only.

Dear colleague, please send me the reported EC50 for CN(Cc1coc2nc(N)nc(N)c12)c1ccc(C(=O)NC(CCC(=O)O)C(=O)O)cc1 (configuration not stated) when you can.
2270

Given the compound Nc1nc(N)c2c(CNc3ccc(C(=O)NC(CCC(=O)O)C(=O)O)cc3)coc2n1 (configuration not stated) , write its reported EC50.
3170

----------
pIC50: −log10 of the molar value.
Below are compounds with their pIC50 as measured on Dihydrofolate reductase (Lactobacillus casei).
Sequence (P00381 whole entry): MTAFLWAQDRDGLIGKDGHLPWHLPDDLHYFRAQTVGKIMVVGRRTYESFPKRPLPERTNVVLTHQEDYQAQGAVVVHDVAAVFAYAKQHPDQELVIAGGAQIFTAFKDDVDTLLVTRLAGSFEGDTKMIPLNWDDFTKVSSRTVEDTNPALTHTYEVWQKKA

COc1ccc(OC)c(NCc2coc3nc(N)nc(N)c23)c1: < 4.51
Nc1nc(N)c2c(CNc3ccc(Cl)c(Cl)c3)coc2n1: < 5.52
Nc1nc(N)c2c(CNc3ccc(C(=O)NC(CCC(=O)O)C(=O)O)cc3)coc2n1 (stereo unspecified): 6.25

Identify measured pIC50 corresponding to `COc1cc(NCc2coc3nc(N)nc(N)c23)cc(OC)c1OC`
< 4.59

Give a short answer stating reported pIC50 for CN(Cc1coc2nc(N)nc(N)c12)c1ccc(C(=O)NC(CCC(=O)O)C(=O)O)cc1 (stereo unspecified) .
6.66

Answer with reported pIC50 of `Nc1nc(N)c2c(CNc3cc(Cl)c(Cl)c(Cl)c3)coc2n1`
< 4.60

----------
# system.tested: Dihydrofolate reductase (Homo sapiens, UniProt P00374)
# Sequence (P00374 whole entry): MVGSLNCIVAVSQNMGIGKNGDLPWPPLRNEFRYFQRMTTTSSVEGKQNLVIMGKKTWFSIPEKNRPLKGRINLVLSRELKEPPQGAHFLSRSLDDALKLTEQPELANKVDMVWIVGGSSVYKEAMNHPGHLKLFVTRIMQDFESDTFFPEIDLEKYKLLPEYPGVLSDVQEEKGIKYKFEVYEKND
# assay.name: Inhibitory concentration for DHFR in recombinant human
Quick reference for IC50 among some molecules

Nc1nc(N)c2c(CNc3ccc(C(=O)NC(CCC(=O)O)C(=O)O)cc3)coc2n1 (stereo not given): 0.45 µM
Nc1nc(N)c2c(CNc3cc(Cl)c(Cl)c(Cl)c3)coc2n1: > 25 µM
Nc1nc(N)c2c(CNc3ccc(Cl)c(Cl)c3)coc2n1: > 15 µM
COc1cc(NCc2coc3nc(N)nc(N)c23)cc(OC)c1OC: > 26 µM

# context switch: different molecule, same IC50
Specify IC50 for `COc1ccc(OC)c(NCc2coc3nc(N)nc(N)c23)c1` and stop.
> 15 µM

----------
# system.tested: Thymidylate synthase (Lactobacillus casei)
# Sequence (P00469 whole entry): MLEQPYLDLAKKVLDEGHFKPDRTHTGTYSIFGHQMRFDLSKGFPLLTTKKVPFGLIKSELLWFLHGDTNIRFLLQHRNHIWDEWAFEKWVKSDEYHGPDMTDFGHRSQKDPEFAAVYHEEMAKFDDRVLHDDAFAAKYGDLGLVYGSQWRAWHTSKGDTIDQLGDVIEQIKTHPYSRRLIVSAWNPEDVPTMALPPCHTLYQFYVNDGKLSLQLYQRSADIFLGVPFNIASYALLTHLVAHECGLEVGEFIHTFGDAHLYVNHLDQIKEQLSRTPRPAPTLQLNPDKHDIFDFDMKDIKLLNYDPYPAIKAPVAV
Catalogue of IC50 readings, one per entry.

Nc1nc(N)c2c(CNc3ccc(C(=O)NC(CCC(=O)O)C(=O)O)cc3)coc2n1 (configuration not stated): > 200 µM

Report IC50 from Thymidylate synthase (Lactobacillus casei) testing of CN(Cc1coc2nc(N)nc(N)c12)c1ccc(C(=O)NC(CCC(=O)O)C(=O)O)cc1 (configuration not stated)
> 200 µM

----------
pIC50: −log10 of the molar value.
# Thymidylate synthase (Homo sapiens): pIC50 values follow
# Sequence (P04818 whole entry): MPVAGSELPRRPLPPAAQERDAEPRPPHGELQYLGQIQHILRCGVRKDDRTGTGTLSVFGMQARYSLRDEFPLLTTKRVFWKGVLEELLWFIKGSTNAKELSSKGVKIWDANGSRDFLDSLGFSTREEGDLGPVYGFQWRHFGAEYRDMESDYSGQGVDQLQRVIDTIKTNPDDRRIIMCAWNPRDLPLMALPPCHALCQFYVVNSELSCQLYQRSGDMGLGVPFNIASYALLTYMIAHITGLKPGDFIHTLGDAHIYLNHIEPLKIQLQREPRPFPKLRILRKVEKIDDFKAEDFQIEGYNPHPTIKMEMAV

CN(Cc1coc2nc(N)nc(N)c12)c1ccc(C(=O)NC(CCC(=O)O)C(=O)O)cc1 (configuration not stated): < 3.70

# ---- query molecule ----
Retrieve pIC50 measured for Nc1nc(N)c2c(CNc3ccc(C(=O)NC(CCC(=O)O)C(=O)O)cc3)coc2n1 (configuration not stated) and print it.
< 3.70

----------
# system.tested: Dihydrofolate reductase (Rattus norvegicus)
# Sequence (Q920D2 whole entry): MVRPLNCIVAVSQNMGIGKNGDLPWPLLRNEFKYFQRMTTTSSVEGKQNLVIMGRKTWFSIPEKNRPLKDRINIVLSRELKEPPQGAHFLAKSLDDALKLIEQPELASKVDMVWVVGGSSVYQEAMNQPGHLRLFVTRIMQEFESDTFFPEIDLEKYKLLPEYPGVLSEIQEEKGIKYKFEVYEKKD
readout.kind: pIC50
Here pIC50 is given on a logarithmic scale as minus log10 of the concentration in mol/L.

The following compounds have reported results that may help.
Nc1nc(N)c2c(CNc3ccc(Cl)c(Cl)c3)coc2n1: 4.45
CN(Cc1coc2nc(N)nc(N)c12)c1ccc(C(=O)NC(CCC(=O)O)C(=O)O)cc1 (stereo unspecified): 6.37
Nc1nc(N)c2c(CNc3cc(Cl)c(Cl)c(Cl)c3)coc2n1: 4.59

Next item in the queue.
Name the recorded pIC50 of the item Nc1nc(N)c2c(CNc3ccc(C(=O)NC(CCC(=O)O)C(=O)O)cc3)coc2n1 (stereo unspecified) in your answer.
5.89
